# inhibition listing for each entry below
Assay: inhibition of PrP 5' UTR reporter expression (AID 488862); note: 0 = median of the neutral control wells
Conditions: cell-based PrP 5' UTR mRNA reporter, plate reader; stronger effect = higher value; concentration not given here
Out of some 340,000 compounds screened, about 1,200 (0.35%) were called active. Only a selection was taken, and actives are over-represented in it overall.
Endpoint: inhibition

| Compound | Measurement |
| --- | --- |
| Nc1ccc([N+](=O)[O-])cc1 | 3.7% (inactive) |
| Cc1ccc(-c2cccc([C@H]3[C@@H]4C=CC[C@@H](C)[C@@H]4C(=O)N3Cc3ccccc3)c2)cc1 | 61.8% (active) |
| Cc1ccc(/C=N/NC(=O)COc2ccccc2-c2ccccc2)cc1 | 70% (active) |
| Cn1c(Nc2ccccc2)cc(=O)n(C)c1=O | -38.1% (inactive) |
| COc1ccc(OC)c(Cc2cnc3nc(N)nc(N)c3c2C)c1 | 65.3% (active) |
| O=[N+]([O-])c1ccc(C=NN=Cc2ccc([N+](=O)[O-])cc2)cc1 | -32.5% (inactive) |
| Cc1cccc(OCC(=O)NCC(=O)N/N=C/c2ccc(N(C)C)cc2)c1 | -13.2% (inactive) |
| Cc1cc(C(=O)CCC(=O)NNC(=O)c2ccccc2O)c(C)s1 | 4.28% (inactive) |
| COc1ccc(OC)c(NC(=O)c2sc3nc(C)cc(C)c3c2N)c1 | -9.33% (inactive) |
| COC1C(O)C(C)OC(OC2CCC3(C=O)C(CCC4C3CCC3(C)C(C5=CC(=O)OC5)CCC43O)C2)C1O (stereo unspecified) | 89.8% (active) |
| CC1=C(C)CC(C(=O)NNC(=O)c2ccccc2O)C(C(=O)O)C1 (stereo unspecified) | -11.4% (inactive) |

###

# inhibition listing for each entry below
Assay: inhibition of PrP 5' UTR reporter expression (AID 488862); note: 0 = median of the neutral control wells
Settings: cell-based PrP 5' UTR mRNA reporter, plate reader; stronger effect = higher value; concentration not given here
In all, about 340,000 compounds went through this assay and about 1,200 (0.35%) were called active. What follows is part of a selection rich in actives, with near analogues and random picks from the rest.

| Molecule | inhibition / % |
| --- | --- |
| OCCC1CN(Cc2ccc3nsnc3c2)CCN1C1CCCC1 (stereo not given) | -10 |
| COc1ccc(C(=O)Nc2cc(C)c(NC(=O)c3ccccc3OC)cn2)cc1 | -9.89 |
| CC(C)(C)C1CCC(C(=O)Nc2cccnc2)CC1 (stereo not given) | -7.89 |
| COC(=O)Cc1[nH]n(-c2nc3ccccc3s2)c(=O)c1C(C)=Nc1ccc(OC)cc1 | 80.1 |
| COc1ccc(S(=O)(=O)Nc2ccc3oc(C)c(C(C)=O)c3c2)cc1 | -20.1 |

###

Test: inhibition of PrP 5' UTR reporter expression (AID 488862); note: 0 = median of the neutral control wells
Settings: cell-based PrP 5' UTR mRNA reporter, plate reader; stronger effect = higher value; concentration not given here
Hit rate of the full screen: of about 340,000 compounds, about 1,200 (0.35%) were called active. For the sample, actives were picked, then their nearest neighbours and some compounds at random.
Endpoint: inhibition (%)

| Chemical Smiles | Readout Unit | Measurement |
| --- | --- | --- |
| Cn1c(SCC(=O)NC2CCCCC2)nnc1-c1cc2ccccc2o1 | % | -18.5 |
| COc1ccc(NC(=O)c2cc3nc(-c4ccccc4)cc(C)n3n2)cc1OC | % | -26.9 |
| c1c2c(cc3sc(N4CCCCC4)nc13)OCCO2 | % | 76.1 |
